- protocol.description: binders from COS7 lysate, DM2A8 probe, primary screen, torsin A project, cell lysate, small-molecule microarray, fluorescence 635/667 (AID 1065)
- cond: higher = more signal, COS7 lysate expressing mutant human TOR1A
quantity.name: composite z-score

Lookup: I am curious: what composite z-score value has been reported for `C=C(COC)C(=O)CC[C@H](OC(C)=O)c1ccccc1OCCO` ?
Found: 0.697

Lookup: I am curious: what composite z-score value has been reported for `COCCOC(=O)N1C(=O)[C@@]2(c3cc(C#CC4=CCCCC4)ccc31)[C@H](C(=O)N1CCCCCCC1)[C@H]1C(=O)O[C@H](c3ccccc3)[C@H](c3ccccc3)N1[C@@H]2c1ccccc1OCCO` ?
Found: 0.571

Lookup: I am curious: what composite z-score value has been reported for C[C@H]1C2[C@H](Cc3ccccc3)NC(=O)[C@]23C(=O)N[C@@H](Cc2ccccc2)C(=O)N2CCC[C@H]2C(=O)NC/C=C/CC/C=C/C3[C@@H]2O[C@]12C (stereo partly drawn) ?
Found: 0.483

Lookup: I am curious: what composite z-score value has been reported for `COc1ccc([Si](C)(C)[C@@H]2[C@@H](CC(=O)N3Cc4ccccc4C[C@H]3CO)O[C@]3(C(=O)N(Cc4ccc(I)cc4)c4ccccc43)[C@H]2C)cc1` ?
Found: 0.0826

----------
- protocol.description: HepG2 liver cancer cell viability effects, profiling panel, resazurin fluorescence, 24 h, PK04 Diversity Set (AID 1172); also: test concentration not given here
- cond: higher = more signal
# if value of z-score reaches 0.3, tag 1 (yes); if it stays below, tag 0 (no)

Solved entries:
compound	class.label
CN1C(=O)C2CC=C(C3=CCO[C@@H]3[C@H]3CCCN3S(=O)(=O)c3ccccc3[N+](=O)[O-])CC2C1=O (stereo not given in full)	0 (no)
COC(=O)Cn1c(C(=O)N(C)C)cc2c1C[C@H]1CN(C(=O)c3ccccc3)[C@@](Cc3ccccc3)(C(=O)OC)[C@@H]21	1 (yes)
COCCOC(=O)N1C(=O)[C@@]2(c3cc(C#CC4=CCCCC4)ccc31)[C@H](c1ccc(O)cc1)N1[C@H](c3ccccc3)[C@H](c3ccccc3)OC(=O)[C@H]1[C@@H]2C(=O)N1CCc2cc(OC)c(OC)cc2C1	0 (no)
CCCCCCCCCCC(O)C1C=CC2C(=O)N(C)C(=O)C2N1Nc1ccccc1 (stereo not given)	0 (no)

Would you kindly look at the next entry?
Lookup: hey, is z-score for this one >= 0.3? `COCCOC(=O)N1C(=O)[C@@]2(c3cc(C#CCC(C(=O)OC)C(=O)OC)ccc31)[C@H](C(N)=O)[C@H]1C(=O)O[C@H](c3ccccc3)[C@H](c3ccccc3)N1[C@@H]2c1ccccc1OCCO`
Found: 0 (no)

----------
- Test system: Sonic hedgehog protein (Shh)
- protocol.description: small-molecule binders of Shh protein, primary screen, biochemical, small-molecule microarray, 635/667 nm fluorescence (AID 1151);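 also: Shh protein binding to compounds spotted on small-molecule microarray slides; score combines spot fluorescence intensity with signal-to-noise across triplicate slides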
- cond: small-molecule microarray binding, 635 nm fluorescence; higher = more signal
composite z-score values for the molecules below.
Give a plain numeric answer without units written out.

Below: 5 molecules and their reported composite z-score.
molecule	measurement.target	composite z-score
COC(=O)[C@@]1(Cc2ccc(F)cc2)[C@H]2c3cc(C(=O)N4CCCC4)n(Cc4ccc(OC(F)(F)F)cc4)c3C[C@H]2CN1C(=O)c1ccccc1	Sonic hedgehog protein (Shh)	-1.02
O=C1C2C=CC(C(O)c3ccccn3)N(Nc3ccc([N+](=O)[O-])cc3)C2C(=O)N1c1ccccc1 (stereo not given)	Sonic hedgehog protein (Shh)	0.04
COc1c(C)cc(-c2nc(-c3ccccc3)c3c(c2C)CO[Si]3(C(C)C)C(C)C)cc1C	Sonic hedgehog protein (Shh)	0.419
COc1ccc(C(O)C2C=CC3C(=O)N(C)C(=O)C3N2Nc2ccccc2)cc1 (stereo not given)	Sonic hedgehog protein (Shh)	0.011
C=C(C)C1CN([C@H](CO)c2ccccc2)C(=O)/C1=C\c1ccccc1 (stereo not given in full)	Sonic hedgehog protein (Shh)	0.633

Lookup: I am curious: what composite z-score value has been reported for `COC(=O)[C@@]1(Cc2ccc(F)cc2)[C@H]2c3cc(C(=O)N4CCCC4)n(CCSCCO)c3C[C@H]2CN1C(=O)c1ccccc1` ?
Found: -0.697

Lookup: I am curious: what composite z-score value has been reported for `CN(C)CCCCNC(=O)[C@H]1C[C@H]2C(=O)N[C@@H](CCCCN(C)C)C(=O)N2[C@H]1c1ccc(O)cc1` ?
Found: 1.29

Lookup: I am curious: what composite z-score value has been reported for `COCCOC(=O)N1C(=O)[C@@]2(c3cc(C#CCNC(N)=O)ccc31)[C@H](c1ccccc1OCCO)N1[C@H](c3ccccc3)[C@H](c3ccccc3)OC(=O)[C@H]1[C@@H]2C(=O)N1CCCCCCC1` ?
Found: 0.83

Lookup: I am curious: what composite z-score value has been reported for `COc1ccc([Si](C)(C)[C@H]2[C@H](CCO)O[C@@]3(C(=O)N(Cc4ccccc4)c4ccc(NC(=O)[C@H](C)O)cc43)[C@@H]2C)cc1` ?
Found: 1.33

Lookup: I am curious: what composite z-score value has been reported for `C=CCOC(=O)[C@H]1[C@@H]2C(=O)O[C@@H](c3ccccc3)[C@@H](c3ccccc3)N2[C@@H](c2ccc(OCCOC(=O)[C@@H]3C[C@@H]4C(=O)N[C@@H](Cc5ccccc5)C(=O)N4[C@@H]3c3ccc(O)cc3)cc2)[C@]12C(=O)Nc1ccc(I)cc12` ?
Found: 1.93
